Target: T1, CAPRIN-1 protein expressed on the membrane surface of human cancer cells (human, UniProt Q14444 2-709)
T1 sequence (looked up): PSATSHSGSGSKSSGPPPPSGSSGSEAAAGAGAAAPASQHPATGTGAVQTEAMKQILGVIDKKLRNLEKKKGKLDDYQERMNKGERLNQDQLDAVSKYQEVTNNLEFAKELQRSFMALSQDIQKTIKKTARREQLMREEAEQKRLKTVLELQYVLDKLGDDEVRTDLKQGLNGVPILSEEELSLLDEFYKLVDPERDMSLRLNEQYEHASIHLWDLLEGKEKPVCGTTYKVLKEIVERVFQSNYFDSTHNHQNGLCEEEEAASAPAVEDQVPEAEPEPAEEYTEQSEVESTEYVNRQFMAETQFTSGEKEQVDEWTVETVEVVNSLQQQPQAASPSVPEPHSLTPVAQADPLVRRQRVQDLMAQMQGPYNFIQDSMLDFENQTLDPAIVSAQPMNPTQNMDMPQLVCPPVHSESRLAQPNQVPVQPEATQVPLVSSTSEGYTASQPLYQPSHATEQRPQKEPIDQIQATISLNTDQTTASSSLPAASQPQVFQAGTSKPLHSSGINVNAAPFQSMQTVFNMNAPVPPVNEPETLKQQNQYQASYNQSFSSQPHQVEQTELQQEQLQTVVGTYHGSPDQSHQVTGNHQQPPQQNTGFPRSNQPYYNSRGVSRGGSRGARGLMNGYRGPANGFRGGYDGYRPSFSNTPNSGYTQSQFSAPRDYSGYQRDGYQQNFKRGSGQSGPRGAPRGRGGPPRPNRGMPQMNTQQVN
Experiment: cell-based or functional assay
measurement type: ADCC cytotoxic activity (51Cr release) on IM-9

Solved cases below.
binder	result
humanized antibody #9 (antibody, V domains shown) VH: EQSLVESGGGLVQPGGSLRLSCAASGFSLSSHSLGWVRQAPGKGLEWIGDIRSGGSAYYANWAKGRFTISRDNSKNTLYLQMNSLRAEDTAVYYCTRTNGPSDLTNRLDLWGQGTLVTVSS VL: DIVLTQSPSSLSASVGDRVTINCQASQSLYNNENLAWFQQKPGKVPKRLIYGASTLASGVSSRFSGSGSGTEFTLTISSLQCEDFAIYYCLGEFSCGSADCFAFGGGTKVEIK	≥ 27%
humanized antibody #3 (antibody, V domains shown) VH: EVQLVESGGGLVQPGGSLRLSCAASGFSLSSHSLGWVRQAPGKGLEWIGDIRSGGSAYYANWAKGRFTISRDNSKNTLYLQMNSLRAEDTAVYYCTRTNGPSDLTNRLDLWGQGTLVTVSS VL: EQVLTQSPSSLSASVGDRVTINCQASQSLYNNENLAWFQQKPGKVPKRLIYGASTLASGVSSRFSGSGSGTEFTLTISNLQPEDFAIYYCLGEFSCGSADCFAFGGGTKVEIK	≥ 30%
humanized antibody #6 (antibody, V domains shown) VH: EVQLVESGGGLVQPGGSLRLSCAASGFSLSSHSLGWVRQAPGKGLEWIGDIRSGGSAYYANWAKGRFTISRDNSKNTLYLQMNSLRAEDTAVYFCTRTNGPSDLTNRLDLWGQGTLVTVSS VL: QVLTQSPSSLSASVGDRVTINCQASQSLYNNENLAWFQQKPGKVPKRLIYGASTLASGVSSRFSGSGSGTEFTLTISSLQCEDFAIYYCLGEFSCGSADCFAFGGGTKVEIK	≥ 35%
humanized antibody #5 (antibody, V domains shown) VH: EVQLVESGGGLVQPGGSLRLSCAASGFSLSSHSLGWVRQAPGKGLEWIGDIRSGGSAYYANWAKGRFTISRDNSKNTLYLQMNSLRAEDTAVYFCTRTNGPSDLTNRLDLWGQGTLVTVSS VL: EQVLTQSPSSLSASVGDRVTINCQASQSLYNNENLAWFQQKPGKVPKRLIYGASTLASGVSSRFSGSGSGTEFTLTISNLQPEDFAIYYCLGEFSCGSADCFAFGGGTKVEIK	≥ 30%
humanized antibody #1 (antibody, V domains shown) VH: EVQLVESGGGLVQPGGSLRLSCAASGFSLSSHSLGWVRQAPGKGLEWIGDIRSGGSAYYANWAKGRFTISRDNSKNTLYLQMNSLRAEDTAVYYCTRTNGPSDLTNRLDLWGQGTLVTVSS VL: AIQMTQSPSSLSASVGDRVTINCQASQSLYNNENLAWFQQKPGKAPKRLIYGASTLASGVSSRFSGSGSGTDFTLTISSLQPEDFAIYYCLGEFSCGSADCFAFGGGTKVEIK	≥ 27%
humanized antibody #7 (antibody, V domains shown) VH: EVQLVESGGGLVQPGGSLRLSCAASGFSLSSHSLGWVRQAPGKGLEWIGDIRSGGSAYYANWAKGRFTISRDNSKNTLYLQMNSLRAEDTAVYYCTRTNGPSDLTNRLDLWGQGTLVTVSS VL: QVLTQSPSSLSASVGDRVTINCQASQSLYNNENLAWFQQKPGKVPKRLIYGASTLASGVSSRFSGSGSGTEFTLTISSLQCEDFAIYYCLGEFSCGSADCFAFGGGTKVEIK	≥ 35%
humanized antibody #8 (antibody, V domains shown) VH: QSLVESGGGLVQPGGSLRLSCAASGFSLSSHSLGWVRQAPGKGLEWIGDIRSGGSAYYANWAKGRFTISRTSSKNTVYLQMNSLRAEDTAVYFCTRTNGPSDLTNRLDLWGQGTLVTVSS VL: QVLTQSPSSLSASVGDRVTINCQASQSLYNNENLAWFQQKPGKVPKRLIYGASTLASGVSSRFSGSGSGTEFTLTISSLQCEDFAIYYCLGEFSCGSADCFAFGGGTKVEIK	≥ 27%
humanized antibody #10 (antibody, V domains shown) VH: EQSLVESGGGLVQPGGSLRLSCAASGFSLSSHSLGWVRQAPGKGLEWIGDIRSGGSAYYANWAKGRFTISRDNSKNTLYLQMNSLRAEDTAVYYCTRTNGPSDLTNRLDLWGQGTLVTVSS VL: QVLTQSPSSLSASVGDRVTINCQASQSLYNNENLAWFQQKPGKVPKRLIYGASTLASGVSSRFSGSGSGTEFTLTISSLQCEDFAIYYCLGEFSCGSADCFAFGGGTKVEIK	≥ 35%

// moving on: another record for ADCC cytotoxic activity (51Cr release) on IM-9
Query: For the binder humanized antibody #0 (antibody, V domains shown) VH: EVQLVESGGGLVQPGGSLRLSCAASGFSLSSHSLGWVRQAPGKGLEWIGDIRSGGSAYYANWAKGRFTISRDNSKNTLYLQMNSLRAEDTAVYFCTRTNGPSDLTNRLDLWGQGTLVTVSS VL: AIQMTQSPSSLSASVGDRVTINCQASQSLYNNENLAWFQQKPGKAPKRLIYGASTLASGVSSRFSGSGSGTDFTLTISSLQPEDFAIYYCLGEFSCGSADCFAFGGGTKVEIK , what ADCC cytotoxic activity (51Cr release) on IM-9 is on record?
Reply: ≥ 27%
